Catalogue of normalized growth readings, one per entry.
# assay procedure: chemical genetic growth profiling, strain panel (AID 1159580);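 note: tested at 20 µM; growth read once vehicle control cultures reached saturation at 30 °C; 1 = growth at the plate median or of vehicle wells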
# experimental conditions: S. cerevisiae deletion strains, growth OD, locus YOR061W, strain CKA2, stronger effect = lower value
The whole screen tested about 5,500 compounds, of which about 2,000 (36%) were called active. About 18% were inconclusive and are not listed. This is one part of the list.
readout name: normalized growth

molecule: CC(CC(O)C1OC1(C)C)[C@@H]1CCC2(C)C3=CCC4C(C)(C)C(=O)CCC4(C)C3CC[C@@]12C (stereo not given in full)
readout name: normalized growth
recorded result: 1.03 (inactive)
//
molecule: CC(C)(C)NCC(O)c1cc(O)cc(O)c1 (stereo not given)
readout name: normalized growth
recorded result: 1 (inactive)
//
molecule: Cc1ccc(C)n1-c1ccc(/C=C2/C(=O)Nc3ccccc32)cc1
readout name: normalized growth
recorded result: 0.932 (inactive)
//
molecule: CCCCCCC(C)OC(=O)COc1ccc(Cl)cc1Cl (stereo not given)
readout name: normalized growth
recorded result: 0.981 (inactive)
//
molecule: CCC/C=C1\OC(=O)C2=C1CCC=C2
readout name: normalized growth
recorded result: 0.996 (inactive)
//
molecule: CC(C1OC(C)(C)C(O)C1O)[C@@H]1CC[C@]2(C)C3=CCC4C(C)(C)C(=O)CC[C@]4(C)C3CC[C@@]12C (stereo not given in full)
readout name: normalized growth
recorded result: 1.01 (inactive)
//
molecule: O=S(=O)(CS(=O)(=O)Oc1ccc(Cl)c(Cl)c1)Oc1ccc(Cl)c(Cl)c1
readout name: normalized growth
recorded result: 0.984 (inactive)
//
molecule: COC(=O)C1OC(=O)C2OC23C1(C)CCC1C2(C)C(OC(C)=O)CC(OC(C)=O)C(C)(C)C2CC(=O)C13C (stereo not given)
readout name: normalized growth
recorded result: 1 (inactive)
//
molecule: CCCC(C)(COC(N)=O)COC(=O)NC(C)C (stereo not given)
readout name: normalized growth
recorded result: 0.962 (inactive)
//
molecule: CC(=O)[C@@]1(O)CCC2C3C[C@H](C)C4=CC(=O)C=CC4(C)[C@@]3(F)[C@@H](O)C[C@@]21C (stereo not given in full)
readout name: normalized growth
recorded result: 1.01 (inactive)

====

# assay procedure: chemical genetic growth profiling, strain panel (AID 1159580);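 note: tested at 20 µM; growth read once vehicle control cultures reached saturation at 30 °C; 1 = growth at the plate median or of vehicle wells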
# experimental conditions: S. cerevisiae deletion strains, growth OD, locus YDL040C, strain nat1
About 2,000 (36%) of roughly 5,500 compounds were called active. Roughly 18% stayed inconclusive and do not appear here. No stated cut-off is given here; in the data, active means normalized growth mostly below about 0.91 (no sharp cut-off); inconclusive means no clear call, values can overlap the other calls; inactive means mostly above about 0.92. This is one part of the list.
Labels: label 1 = active, label 0 = inactive

compound: CCCCOc1cc(C(=O)NCCN(CC)CC)c2ccccc2n1
group: label 0
//
compound: CC(CC(C(N)=O)(c1ccccc1)c1ccccc1)N(C)C (stereo not given)
group: label 0
//
compound: CCN(Cc1ccncc1)C(=O)C(CO)c1ccccc1 (stereo not given)
group: label 0
//
compound: C[C@]12C=CC(=O)C=C1CCC1C2[C@@H](O)C[C@@]2(C)C1CC[C@]2(O)C(=O)COP(=O)(O)O (stereo not given in full)
group: label 0
//
compound: CC(C)N(CCC(C(N)=O)(c1ccccc1)c1ccccn1)C(C)C (stereo not given)
group: label 1

====

Listed here are compounds together with their documented normalized growth.
# assay procedure: chemical genetic growth profiling, strain panel (AID 1159580);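 note: tested at 20 µM; growth read once vehicle control cultures reached saturation at 30 °C; 1 = growth at the plate median or of vehicle wells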
# experimental conditions: S. cerevisiae deletion strains, growth OD, locus YOR083W, strain WHI5, stronger effect = lower value
Hit rate of the full screen: of about 5,500 compounds, about 2,000 (36%) were called active. Inconclusive results (about 18%) are left out. This is one part of the list.

compound: CN1C[C@H](C(=O)N[C@]2(C)O[C@@]3(O)[C@@H]4CCCN4C(=O)[C@H](Cc4ccccc4)N3C2=O)C[C@@H]2c3cccc4[nH]cc(c34)C[C@H]21
normalized growth: 0.931
//
compound: O=C1C=C2C(=CCOC2O)O1 (stereo not drawn)
normalized growth: 0.662
//
compound: CC(=O)Oc1ccc2c(c1C(C)C)CCC1C(C)(C)CCC[C@]21C (stereo partly drawn)
normalized growth: 1.01
//
compound: CCN(Cc1ccncc1)C(=O)C(CO)c1ccccc1 (stereo not drawn)
normalized growth: 1.01
//
compound: N#Cc1nn(-c2c(Cl)cc(C(F)(F)F)cc2Cl)c(N)c1S(=O)C(F)(F)F (stereo not drawn)
normalized growth: 0.941
//
compound: CCOCN(C(=O)CCl)c1c(C)cccc1CC
normalized growth: 1
//
compound: COc1cc2occc2c2oc(=O)ccc12
normalized growth: 0.955
//
compound: NC(=O)CN1CCCC1=O
normalized growth: 0.968
//
compound: O=c1ccc2c(O)c3ccoc3cc2o1
normalized growth: 0.989
//
compound: COC(=O)[C@@]1(C)CCC[C@]2(C)c3ccc(O)c(C(C)C)c3CCC12 (stereo partly drawn)
normalized growth: 0.835
//
compound: CC[n+]1c(-c2ccccc2)c2cc(N)ccc2c2ccc(N)cc21
normalized growth: 0.948
//
compound: NC(N)=NC(=O)c1nc(Cl)c(N)nc1N
normalized growth: 1.04
//
compound: COc1cc(OC)c2ccc(=O)oc2c1
normalized growth: 0.968
